Target: T1, recombinant human IL-19 (Homo sapiens, UniProt Q9UHD0)
T1 sequence (Q9UHD0 25-177): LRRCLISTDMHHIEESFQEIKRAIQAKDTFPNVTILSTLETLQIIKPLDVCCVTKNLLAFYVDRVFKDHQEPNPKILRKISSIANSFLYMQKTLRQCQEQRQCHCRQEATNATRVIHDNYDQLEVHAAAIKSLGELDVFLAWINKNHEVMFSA
Assay: Binning by cross-competition binding assay (Octet Red96)
molecules and their reported Binning Group

- molecule: "R_2: rabbit-derived IL-19 antibody; LCVR SEQ ID NO: 42, HCVR SEQ ID NO: 46 (antibody, V domains shown) VH: QQLEESGGGLVQPEGSLTLTCTASGFSFSSSYWICWVRQAPGKGLEWLACIDTGVSGDTYYANWAKGRFTISKTSSTTVTLQMTSLTAADTATYFCARDIFGSAIDNSLWGPGTLVTVSS VL: ADVVMTQTPASVEAAVGGTVTIKCQASESIGNALAWYQQKPGQPPKLLIYDASKLASGVPSRFKGSGSGTQFTLTISDLECADAATYYCQCHYHGSSYWDNSFGGGTEVVVK"
  Binning Group: 3
- molecule: "R_4: rabbit-derived IL-19 antibody; LCVR SEQ ID NO: 58, HCVR SEQ ID NO: 62 (antibody, V domains shown) VH: QCQSVEESGGRLVTPGTPLTLTCTVSGIDLSIYAMGWVRQAPGKGLEYIGIIDTTGTAYYARWAKGRFTISKTSATVALKITSPTTEDTATYFCARDSGSLYYGSYALWGPGTLVTVSS VL: ADVVMTQTPSSVSEPVGGTVTIKCQASQSIYSYLSWYQQKPGQPPKLLIYEASKLASGVPSRFKGSGSGTQFTLTISGVECADAATYYCQQGYSSSNVDNTFGGGTEVVVT"
  Binning Group: 4
- molecule: "R_1: rabbit-derived IL-19 antibody; LCVR SEQ ID NO: 34, HCVR SEQ ID NO: 38 (antibody, V domains shown) VH: QQLEESGGGLVQPEGSLTLTCTASGFSFSSSYWICWVRQAPGKGLEWLACIDTGVSGDTYYANWAEGRFTISKTSSTTVTLQMTSLTAADTATYFCARDIFGSAIDNSLWGPGTLVTVSS VL: AIDMTQTPASVSEPVGGTVTIKCQASQSISSYLAWYQQKPGQPPKLLIYSASTLASGVPSRFRGSGSGREFTLTISDLECADAATYYCQCHYHGSSYWDNSFGGGTEVVVK"
  Binning Group: 3
